# PROTOCOL NOTES: Solubility of the compound at pH 6.8 after 24 hrs
# Assay type: physicochemical
# ASSAY CONTEXT: buffer
OBSERVABLE: solubility at 24 h (µM)
All answers are understood in µM, so give the number only.

// query # solubility at 24 h lookup, item Cc1cc(CC(C)(C)C(=O)O)cc(C)c1-c1nc2ccc(C(=O)Nc3ccc4ccccc4n3)cc2[nH]1
// result 8

###

# PROTOCOL NOTES: AUC (0 to 24 hrs) in dog plasma at 5 mg/kg, po after 24 hrs
# Format: ADME, organism-based, Canis lupus familiaris
# Set-up: time < 24 hr, dose 5 mg/kg, route oral
OBSERVABLE: AUC(0-t) at 24 h (µM·h)
Please respond with the number in µM·h and leave the unit unwritten.

// query Sample COc1ccc(-c2nnc(-c3ccc4nc(-c5c(C)cc(CC(C)(C)C(=O)O)cc5C)[nH]c4c3)o2)cc1.[Na+] — what was its AUC(0-t) at 24 h?
// result 5.27

###

# PROTOCOL NOTES: Plasma concentration in high fat diet-fed dog at 5 mg/kg, po qd administered via gavage measured after twenty-ninth dose
# Type: ADME, organism-based, Canis lupus familiaris
OBSERVABLE: concentration at 29 days
Reply with a number, then the unit it belongs to.

// query Entry COc1ccc(-c2nnc(-c3ccc4nc(-c5c(C)cc(CC(C)(C)C(=O)O)cc5C)[nH]c4c3)o2)cc1.[Na+] has what concentration at 29 days?
// result 930 nM
